# tgt: Intercellular adhesion molecule (ICAM-1), Integrin alpha-L/beta-2 (Homo sapiens) (UniProt P20701+P05362+P05107)
# testMethodNotes: Inhibition of LFA1/ICAM1-mediated HL60 cell aggregation
# Format: cell-based
# conditions: HL-60
observedProperty: MIC (µg/mL)

• C=C1[C@@H](C)[C@H]2[C@H](Cc3ccccc3)NC(=O)[C@]23OC(=O)/C=C/[C@H](O)CCC[C@@H](C)C/C=C/[C@H]3[C@@H]1O = 2.3
• CC[C@@H](C)C(=O)O[C@H]1C(=O)O[C@@H]2C[C@H]3C(C)=CC(=O)[C@@H](O)[C@]3(C)[C@H]3[C@@H](OC(C)=O)[C@H](OC(C)=O)[C@]4(C)OC[C@]32[C@@H]14 = 20.8
• CC[C@@H](C)C(=O)O[C@H]1C(=O)O[C@@H]2C[C@H]3C(C)=CC(=O)[C@@H](O)[C@]3(C)[C@H]3[C@@H](O)[C@H](O)[C@]4(C)OC[C@]32[C@@H]14 = 0.01
• CC[C@@H](C)C(=O)O[C@H]1C(=O)O[C@@H]2C[C@H]3C(C)=C[C@H](O)[C@@H](O)[C@]3(C)[C@H]3[C@@H](O)[C@@H](O)[C@]4(C)OC[C@]32[C@@H]14 = 0.26

###

# Test system: HeLa
# testMethodNotes: Inhibition of protein synthesis in human HeLa cells at 2 uM by [35S]methionine metabolic labeling study
# Type: functional
The entries below come with measured inhibition at 2 µM values attached.
observedProperty: inhibition at 2 µM

• CC[C@@H](C)C(=O)O[C@H]1C(=O)O[C@@H]2C[C@H]3C(C)=CC(=O)[C@@H](O)[C@]3(C)[C@H]3[C@@H](O)[C@H](O)[C@]4(C)OC[C@]32[C@@H]14 = 98.5%
• CC[C@@H](C)C(=O)O[C@H]1C(=O)O[C@@H]2C[C@H]3C(C)=C[C@H](O)[C@@H](O)[C@]3(C)[C@H]3[C@@H](O)[C@@H](O)[C@]4(C)OC[C@]32[C@@H]14 = 96.5%
• CC[C@@H](C)C(=O)O[C@H]1C(=O)O[C@@H]2C[C@H]3C(C)=CC(=O)[C@@H](O)[C@]3(C)[C@H]3[C@@H](OC(C)=O)[C@H](OC(C)=O)[C@]4(C)OC[C@]32[C@@H]14 = 0%
• CC[C@@H](C)C(=O)O[C@H]1C(=O)O[C@@H]2C[C@H]3C(C)=C[C@H](OC(C)=O)[C@@H](OC(C)=O)[C@]3(C)[C@H]3[C@@H](O)[C@@H](OC(C)=O)[C@]4(C)OC[C@]32[C@@H]14 = 0%

###

# Test system: Leishmania donovani
# testMethodNotes: Antileishmanial activity against Leishmania donovani promastigotes after 48 hrs by alamar blue assay
# Format: functional, organism-based
Recorded IC50, one value per entry.
observedProperty: IC50

* CC[C@@H](C)C(=O)O[C@H]1C(=O)O[C@@H]2C[C@H]3C(C)=C[C@H](O)[C@@H](O)[C@]3(C)[C@H]3[C@@H](O)[C@@H](O)[C@]4(C)OC[C@]32[C@@H]14 | 25 µg/mL
* C[C@@H]1CC[C@H]2[C@@H](C)C(=O)O[C@@H]3O[C@@]4(C)CC[C@@H]1[C@]32OO4 | 36 µg/mL
* CC[C@@H](C)C(=O)O[C@H]1C(=O)O[C@@H]2C[C@H]3C(C)=CC(=O)[C@@H](O)[C@]3(C)[C@H]3[C@@H](O)[C@H](O)[C@]4(C)OC[C@]32[C@@H]14 | 0.035 µg/mL
* CC[C@@H](C)C(=O)O[C@H]1C(=O)O[C@@H]2C[C@H]3C(C)=CC(=O)[C@@H](O)[C@]3(C)[C@H]3[C@@H](OC(C)=O)[C@H](OC(C)=O)[C@]4(C)OC[C@]32[C@@H]14 | > 50 µg/mL
* CC[C@@H](C)C(=O)O[C@H]1C(=O)O[C@@H]2C[C@H]3C(C)=C[C@H](OC(C)=O)[C@@H](OC(C)=O)[C@]3(C)[C@H]3[C@@H](O)[C@@H](OC(C)=O)[C@]4(C)OC[C@]32[C@@H]14 | > 50 µg/mL
* N=C(N)c1ccc(OCCCCCOc2ccc(C(=N)N)cc2)cc1 | 1.6 µg/mL
* C[C@@H]1[C@H](O)[C@@H](C)/C=C/C=C/C=C/C=C/C=C/C=C/C=C/[C@H](O[C@@H]2O[C@H](C)[C@@H](O)[C@H](N)[C@@H]2O)C[C@@H]2O[C@](O)(C[C@@H](O)C[C@@H](O)[C@H](O)CC[C@@H](O)C[C@@H](O)CC(=O)O[C@H]1C)C[C@H](O)[C@H]2C(=O)O | 1.1 µg/mL
